- experimental target: T1, huTfR Apical Domain-Avi-His (human, biotin on the Avi tag (BirA) where captured on streptavidin)
- T1 construct: also called huTfR apical Avi-His; hTfR Apical
- T1 chain: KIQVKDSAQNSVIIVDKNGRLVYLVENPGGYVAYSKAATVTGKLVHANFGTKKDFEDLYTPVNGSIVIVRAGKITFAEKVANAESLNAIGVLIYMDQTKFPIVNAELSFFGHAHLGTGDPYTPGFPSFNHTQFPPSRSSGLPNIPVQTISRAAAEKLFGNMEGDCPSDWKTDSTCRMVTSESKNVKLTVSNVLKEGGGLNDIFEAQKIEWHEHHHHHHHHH
- assay explanation: ELISA OD450, supernatant
metric name: ratio over irrelevant protein (fold)
Numbers only, in fold.

INSERT INTO results (binder, metric_name, measurement_units, experimental_value) VALUES
  ('TfR23 (mouse hybridoma antibody) (antibody, V domains shown, mouse IgG in hybridoma supernatant) VH: DVQLQESGPGLVKPSQSLSLTCTVTGYSITSDYAWNWIRQFPGNKLEWMGYISYSGSTSYNPSLKSRISITRDTSKNQFFLQLNSVTTEDTATYYCTSWGYRYLEDYWGQGTSVTVSS VL: QIVLTQSPAIMSASPGERVTMTCSASSSISSLHWYQQKPGTSPKKWIYDTSKLASGVPARFSGSGSGTSYSLAISSMEAEDAATYYCHQRSSYPWTFGGGTKLEIK', 'ratio over irrelevant protein', 'fold', 31),
  ('TfR2 (mouse hybridoma antibody) (antibody, V domains shown, mouse IgG in hybridoma supernatant) VH: EVQLQQSGPELVKPGASVKISCKASGYTFTDYNMHWVKQSHGKSLEWIGYIYPYNGGTGYNQKFKSKATLTVDNSSSTAYMELRSLTSEDSAVYYCATLYDGYYFDYWGQGTTLTVSS VL: DILLTQSPAILSVSPGERVSFSCRASQSIGTSIHWYQQRTNGSPRLLIKYASESISGIPSRFSGSGSGTDFTLSINNVESEDIADYYCQQSNSWPFTFGSGTKLEIK', 'ratio over irrelevant protein', 'fold', 5),
  ('TfR30 (mouse hybridoma antibody) (antibody, V domains shown, mouse IgG in hybridoma supernatant) VH: QVQLQQSGPQLVRPGASVKISCKASGYSFTNYWLHWVKQRPGQGLEWIGMIDPSDSETRLNQKFKDKATLTVDKSSSTAYMQLSSPTSEDSAVYYCARWGGGYYGFAYWGQGTLVTVSA VL: DIVMTQSQKFMSTSVGDRVSITCKASQNVRTAVAWYQQKPGQSPKALIYLASNRHTGVPDRFTGSGSGTDFTLTISNVQSEDLADYFCLQHWNYPWTFGGGTKLEIK', 'ratio over irrelevant protein', 'fold', 29),
  ('TfR24 (mouse hybridoma antibody) (antibody, V domains shown, mouse IgG in hybridoma supernatant) VH: QVQLQQSGPELVKPGTSVKMSCKASGYTFTSYYIHWVKQRPGQGLEWIGWIYPGDDNTHYNENFKGKTTLTADKSSSTAYMLLSSLTSEDSAIYFCARDYYGRFAYWGQGTLVTVSA VL: DIVMTQSPSSLTVTAGERVTMSCKSSQSLLNSGNQKNYLTWFQQKPGQPPKLLIYWASTRESGVPDRFTGSGSGTDFTVTISSVQAEDLAVYYCQNDYGYPLTFGAGTKLELK', 'ratio over irrelevant protein', 'fold', 31),
  ('TfR27 (mouse hybridoma antibody) (antibody, V domains shown, mouse IgG in hybridoma supernatant) VH: QVQLQQPGSELVRPGASVKLSCKASGYTFTSYWMHWVKQRPGQGLEWIGNIYPGTGSTNYDEKFKSKATLTVDTSSSTAYMQLSSLTSEDSAVYYCTRSSYYGNFDTMDYWGQGTSVTVSS VL: QIFLTQSPAIMSASPGERVTMTCSASSSIRYMNWYQQKPGTSPKRWIYDTSELASGVPARFTGSGSGTSYSLTISSMEAEDAATYYCHQRSGYPWTFGGGTKLEIK', 'ratio over irrelevant protein', 'fold', 34);

Hi team, please reply with ratio over irrelevant protein for each item in this list.
1. TfR22 (mouse hybridoma antibody) (antibody, V domains shown, mouse IgG in hybridoma supernatant) VH: DVQLQESGPGLVKPSQSLSLTCTVTGYSITSDYAWNWIRQFPGNKLEWMGYISYSGSTRYNPSLKSRISITRDTSKNQFFLQLNSVTTEDTATYYCTSWGYRYLEDYWGQGTSVTVSA VL: QIVLTQSPAIMSASPGERVTMTCSASSSISSMHWYQQKPGTSPKKWIYDTSKLASGVPARFSGSGSGTSYSLTISSMEAEDAATYYCHQRSSYPWTFGGGTKLEIK
2. TfR11 (mouse hybridoma antibody) (antibody, V domains shown, mouse IgG in hybridoma supernatant) VH: EVQLQQSGTVLARPGASVKMSCKASGYSFTSYWMHWVKQRPGQGLEWIGAIFPGNIDTIYNQKFKDKAKLTAVTSASTAYMELSSLTNEDSAVYFCTRLYYDYVWGAGTTVTVSS VL: DIKMTQSPSSMYASLGERVTLTCKASQDINSYLSWFQQKPGKSPKTLIYHVNRLVDGVPSRFSGSGSGQDYSLTISSLEYEDMGIYYCLQYDEFPYTFGGGTKLEIK
3. TfR32 (mouse hybridoma antibody) (antibody, V domains shown, mouse IgG in hybridoma supernatant) VH: QVQLQQSGADLVRPGTSVKVSCKASGNAFSNYLIEWVKQRPGQGLEWIGVINPGSGETNYNEKFKGKATLTADKSSSTAYMQLSSLTSDDSAVYFCAIRYDGPLLDHWGQGTSVTVSS VL: SIVMTQTPKFLLVSAGDRVTITCKASQSVSNDVAWFQQKPGQSPKLLIYYASNRYTGVPDRFTGSGYGTDFTFTIRNVQAEDLAVYFCQQDYISPTFGAGTKLELK
4. TfR17 (mouse hybridoma antibody) (antibody, V domains shown, mouse IgG in hybridoma supernatant) VH: DVQLQESGPGLVKPSQSLSLTCTVTGYSITSDYAWNWIRQFPGNKLEWMGYISYSGSTSYNPSLKSRISITRDTSKNQFFLQLNSVTTEDTATYYCASWGYRYLEDYWGQGTSVTVSS VL: QIVLTQSPAIMSASPGEKVTMTCSASSSISSMHWYQQKPGTSPKRWISDTSKLASGIPARFSGSGSGTSYSLTISSMAAEDAAAYYCHQRSSYPWTFGGGTKLEIK
5. TfR6 (mouse hybridoma antibody) (antibody, V domains shown, mouse IgG in hybridoma supernatant) VH: DVQLVESGGGLVQPGGSRKLSCAASGFTFSSFGMHWVRQAPEKGLEWVAYISSGSSAIYYADTVKGRFTVSRDNPKNTLFLQMTSLRSEDTAIYYCATSYVYDPPWFAYWGQGTLVTVSA VL: DIVMTQSHKFMSTSVGDRVSITCKASQDVSTAVAWYQQKPGQSPKLLIYWASTRPTGVPDRFTGSGSGTDYTLTISSVQAEDLALYSCQQHFSTPWTFGGGTKLEIK

Reply |
1. 33
2. 39
3. 25
4. 26
5. 37

Values from patent US20250270339A1
